# Test system: Enterobacter aerogenes
# test_description: Antimicrobial well method, zone of inhibition
# Type: cell-based
# details: Klebsiella aerogenes
Let's look at some compounds and their measured zone of inhibition at 1 mg/well.
property_name: zone of inhibition at 1 mg/well (mm)

compound	property_name	unit_name	endpoint_value
COc1ccc(Br)c(C(=O)OCc2cn(C(c3ccccc3)C(C)N3CCCC3)nn2)c1 (stereo not drawn)	zone of inhibition at 1 mg/well	mm	10
C[C@@H]([C@@H](c1ccccc1)n1cc(CC2(O)CCCCC2)nn1)N1CCCC1	zone of inhibition at 1 mg/well	mm	12
C[C@@H]([C@@H](c1ccccc1)n1cc(COC(=O)C=Cc2ccccc2)nn1)N1CCCC1	zone of inhibition at 1 mg/well	mm	14
[H]/N=C(/N)N[C@H]1[C@H](O)[C@@H](O)[C@H](O[C@@H]2O[C@@H](C)[C@](O)(C=O)[C@H]2O[C@@H]2O[C@@H](CO)[C@H](O)[C@@H](O)[C@@H]2NC)[C@@H](N/C(N)=N\[H])[C@@H]1O [Streptomycin, reference compound]	zone of inhibition at 1 mg/well	mm	22
C[C@@H]([C@@H](c1ccccc1)n1cc(COC(=O)c2ccccc2)nn1)N1CCCC1	zone of inhibition at 1 mg/well	mm	10
C[C@@H]([C@@H](c1ccccc1)n1cc(CO)nn1)N1CCCC1	zone of inhibition at 1 mg/well	mm	14

====

Salmonella paratyphi-B measurements of MIC, listed per entry.
property_name: MIC

                                   molecule  property_name  endpoint_value
0  Cc1cccc(C(=O)OCc2cn([C@H](c3ccccc3)[C@H](C)N3CCCC3)nn2)c1            MIC        125 mg/L
1  C[C@@H]([C@@H](c1ccccc1)n1cc(COC(=O)c2ccccc2)nn1)N1CCCC1            MIC        250 mg/L
2  CC(C(c1ccccc1)n1cc(COC(=O)c2ccc(C(C)(C)C)cc2)nn1)N1CCCC1 (stereo not drawn)            MIC        500 mg/L

====

# System: Salmonella typhimurium
# test_description: Minimum inhibitory concentration (MIC)
# Format: cell-based
# details: Salmonella enterica, TYPHIMURIUM, read-out: Minimum inhibitory concentration
Let's look at some compounds and their measured MIC.
property_name: MIC (µg/mL)

compound	unit_name	endpoint_value
COc1ccc(C(=O)OCc2cn([C@H](c3ccccc3)[C@H](C)N3CCCC3)nn2)cc1OC	µg/mL	62.5
[H]/N=C(/N)N[C@H]1[C@H](O)[C@@H](O)[C@H](O[C@@H]2O[C@@H](C)[C@](O)(C=O)[C@H]2O[C@@H]2O[C@@H](CO)[C@H](O)[C@@H](O)[C@@H]2NC)[C@@H](N/C(N)=N\[H])[C@@H]1O [Streptomycin, reference compound]	µg/mL	6.25
Cc1cccc(C(=O)OCc2cn([C@H](c3ccccc3)[C@H](C)N3CCCC3)nn2)c1	µg/mL	62.5
C[C@@H]([C@@H](c1ccccc1)n1cc(COC(=O)c2ccc([N+](=O)[O-])cc2)nn1)N1CCCC1	µg/mL	62.5

====

# System: Staphylococcus aureus-MRSA
# test_description: Minimum inhibitory concentration (MIC)
# Type: cell-based
# details: Staphylococcus aureus-MRSA; read-out: Minimum inhibitory concentration
property_name: MIC (µg/mL)

                                   compound  endpoint_value
0  CC(C(c1ccccc1)n1cc(COC(=O)c2ccc(C(C)(C)C)cc2)nn1)N1CCCC1 (stereo not drawn)             250
1  C[C@@H]([C@@H](c1ccccc1)n1cc(CO)nn1)N1CCCC1             250
2  C[C@@H]([C@@H](c1ccccc1)n1cc(COC(=O)C=Cc2ccccc2)nn1)N1CCCC1             125
3  Cc1cccc(C(=O)OCc2cn([C@H](c3ccccc3)[C@H](C)N3CCCC3)nn2)c1             250
4  C[C@@H]([C@@H](c1ccccc1)n1cc(COC(=O)c2ccccc2)nn1)N1CCCC1             125
5  CC([C@@H](c1ccccc1)n1cc(CN(C)[C@@H](C)Cc2ccccc2)nn1)N1CCCC1 (stereo partly drawn)             250
